Recorded absolute recovery values for a group of compounds are listed next.
Test: absolute recovery over vacuum-assisted evaporative concentration; higher = better recovery
Details: wastewater influent; enrichment method: VEC
measuredAttribute: absolute recovery

>>> measurement("CCCCCCCCCC[N+](C)(C)[O-]")
"110%"
>>> measurement("CC(=O)N(C)N(C(=O)C(=O)N(C)C)c1ccccc1")
"114%"
>>> measurement("Nc1ccc(S(=O)(=O)[N-]c2ccccn2)cc1")
"95.5%"
>>> measurement("CCCCOCCOCCOCc1cc2c(cc1CCC)OCO2 [Piperonyl-butoxide]")
"88.2%"
>>> measurement("C#CC[N+](C)([O-])C(C)Cc1ccccc1 (stereo not given) [Deprenyl-N-Oxide]")
"106%"
>>> measurement("c1ccc2c(c1)Cc1ccccc1N1CC[NH2+]CC21 (stereo not given)")
"84.1%"
>>> measurement("C[NH2+]C(C)C(O)c1ccccc1 (stereo not given)")
"99%"
>>> measurement("CCNc1nc(NCC)nc(OC)n1")
"102%"
>>> measurement("C[NH2+]CCC(Oc1ccccc1C)c1ccccc1 (stereo not given)")
"96.6%"
>>> measurement("COC(=O)Nc1nc2ccccc2[nH]1")
"103%"
>>> measurement("CCCCc1nc(Cl)c(CO)n1Cc1ccc(-c2ccccc2-c2nn[nH]n2)cc1")
"105%"
>>> measurement("CON=C(C(=O)[O-])c1ccccc1COc1ccccc1C")
"134%"
>>> measurement("NC(=O)c1c(Cl)cccc1Cl")
"107%"
>>> measurement("CC(C)(C)Nc1nc(N)nc(O)n1 [Terbutylazin-desethyl-2-hydroxy]")
"85.2%"
>>> measurement("CCCCc1c(C)nc(NCC)nc1OS(=O)(=O)N(C)C [Bupirimate]")
"117%"
>>> measurement("COc1cc(OC)nc(NC(=O)[N-]S(=O)(=O)N(C)S(C)(=O)=O)n1")
"98.2%"
>>> measurement("NC(=O)c1ncn(C2OC(CO)C(O)C2O)n1 (stereo not given)")
"67.6%"
>>> measurement("C=CCOc1ccccc1OCC(O)C[NH2+]C(C)C (stereo not given)")
"107%"
>>> measurement("OCC(O)C[NH+]1CCN(c2ccccc2)CC1 (stereo not given)")
"98.7%"
>>> measurement("C[NH+]1CCN(C2=Nc3cc(Cl)ccc3Nc3ccccc32)CC1")
"98%"
>>> measurement("CC[NH+](CC)CC(=O)Nc1c(C)cccc1C")
"99.4%"
>>> measurement("c1ccc2[nH]c(-c3cscn3)nc2c1")
"105%"
>>> measurement("Cc1ccc(NC(=O)N(C)C)cc1Cl")
"102%"
>>> measurement("CC(=O)Nc1ccc(S(=O)(=O)[N-]c2nccs2)cc1")
"101%"
>>> measurement("CC=C1[NH+](C)C(C)CC1(c1ccccc1)c1ccccc1 (stereo not given)")
"82.3%"
>>> measurement("CC(O)(CS(=O)(=O)c1ccc(F)cc1)C(=O)Nc1ccc(C#N)c(C(F)(F)F)c1 (stereo not given)")
"102%"
>>> measurement("C=CC(=O)OCCOC(=O)CCC(=O)[O-] [Mono(2-acryloyloxyethyl)-succinate]")
"31.6%"
>>> measurement("CCOc1cc(CC(=O)NC(CC(C)C)c2ccccc2N2CCCCC2)ccc1C(=O)[O-] (stereo not given) [Repaglinide]")
"95.3%"
>>> measurement("COC(=O)c1ccccc1S(=O)(=O)[N-]C(=O)N(C)c1nc(C)nc(OC)n1")
"119%"
>>> measurement("COCCCOc1cc(CC(CC([NH3+])C(O)CC(C(=O)NCC(C)(C)C(N)=O)C(C)C)C(C)C)ccc1OC (stereo not given)")
"91.1%"
>>> measurement("Cc1cc(O)nc(C(C)C)n1")
"108%"
>>> measurement("CC1=NNC(=O)N(N=Cc2cccnc2)C1")
"110%"
>>> measurement("N#Cc1cc(I)c([O-])c(I)c1")
"111%"
>>> measurement("O=C([O-])C(c1ccccc1)C1CCCC[NH2+]1 (stereo not given)")
"104%"
>>> measurement("C[NH+](C)CCC(c1ccccc1)c1ccccn1 (stereo not given)")
"87.2%"
>>> measurement("CC[N+]([O-])(CC)CC(=O)Nc1c(C)cccc1C [Lidocaine-N-Oxide]")
"105%"
>>> measurement("CC[NH+](CC)CCNC(=O)c1cc(Cl)c(N)cc1OC")
"92.6%"
>>> measurement("C[NH2+]C(C)Cc1ccccc1 (stereo not given)")
"91.3%"
>>> measurement("O=P1(N(CCCl)CCCl)NCCCO1 (stereo not given)")
"100%"
>>> measurement("c1cncc(C2CCC[NH2+]2)c1 (stereo not given)")
"118%"
